- tested-system: α-glucosidase
- test-summary: α-Glucosidase inhibition assay
- run-conditions: read-out: α-Glucosidase IC50; Table 3; DF = 100
Form field: pIC50 (one value per entry).
Answer as the number alone; pIC50 is minus log10 of concentration in mol/L.

compound	pIC50
O=C1CSC(N=C2c3ccccc3-c3nc4cc(F)ccc4nc32)=N1 [Compound 4]	4.99
CCC1SC(NN=C2c3ccccc3-c3nc4cc(F)ccc4nc32)=NC1=O (stereo not shown) [Compound 16]	5.15
CCOC(=O)c1sc(N=C2c3ccccc3-c3nc4cc(F)ccc4nc32)nc1C [Compound 6]	5.52

Note: attention shifts to another entry.
Query CC(=O)c1sc(NN=C2c3ccccc3-c3nc4cc(F)ccc4nc32)nc1C [Compound 8] yields pIC50 of 6.01

---

- System: STZ-induced diabetes in mice
- test-summary: Plasma insulin
- Assay type: in vivo
- run-conditions: two weeks of treatment, mean of 6 mice ± SEM
parameter-measured: Insulin

compound	Insulin
CC(=O)c1sc(NN=C2c3ccccc3-c3nc4cc(F)ccc4nc32)nc1C [Compound 8]	10.5 ± 0.3^a^,^b ng/mL
Cc1ccc(S(=O)(=O)NC(=O)NN2CC3CCCC3C2)cc1 (centres unmarked) [Gliclazide]	14.52 ± 0.4^a^,^b ng/mL
CCC1SC(NN=C2c3ccccc3-c3nc4cc(F)ccc4nc32)=NC1=O (centres unmarked) [Compound 16]	9.34 ± 0.3^a^,^b ng/mL
O=C1CSC(N=C2c3ccccc3-c3nc4cc(F)ccc4nc32)=N1 [Compound 4]	11.44 ± 0.2^a^,^b ng/mL

For the compound CCOC(=O)c1sc(N=C2c3ccccc3-c3nc4cc(F)ccc4nc32)nc1C [Compound 6] , the measured Insulin on STZ-induced diabetes in mice was 12.28 ± 0.3^a^,^b ng/mL
